Target: CYP2C9 (Homo sapiens, UniProt P11712)
Sequence (P11712 whole entry): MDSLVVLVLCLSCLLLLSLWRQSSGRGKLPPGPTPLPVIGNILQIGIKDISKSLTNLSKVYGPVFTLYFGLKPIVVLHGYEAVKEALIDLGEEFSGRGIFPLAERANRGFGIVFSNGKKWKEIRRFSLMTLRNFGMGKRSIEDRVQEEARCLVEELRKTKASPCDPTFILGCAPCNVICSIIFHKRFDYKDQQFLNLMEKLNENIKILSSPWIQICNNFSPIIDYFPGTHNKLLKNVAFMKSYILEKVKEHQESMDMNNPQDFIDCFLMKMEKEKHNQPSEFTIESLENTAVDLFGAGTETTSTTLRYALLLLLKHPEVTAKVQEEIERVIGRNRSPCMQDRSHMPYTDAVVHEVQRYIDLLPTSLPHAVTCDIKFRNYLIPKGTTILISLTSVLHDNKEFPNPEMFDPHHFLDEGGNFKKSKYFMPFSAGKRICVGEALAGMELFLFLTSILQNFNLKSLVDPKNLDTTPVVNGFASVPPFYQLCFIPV
measured.property: IC50 (µM)
Give bare numbers, in µM.

[ask] Return IC50 (reported value) for this compound: O=C(NCc1cnc(C(F)(F)F)s1)c1ccc2c(c1)NC(=O)c1ccccc1S2(=O)=O [ABI-H0731]
[reply] 30.7

---

Assay: in vivo
Conditions: male, Sprague-Dawley, rat, iv, 1 mg/kg
measured.property: Vd (L/kg)
One number for each entry, in L/kg.

[ask] Return Vd (reported value) for this molecule: O=C(NCc1cnc(C(F)(F)F)s1)c1ccc2c(c1)NC(=O)c1ccccc1S2(=O)=O
[reply] 3.47

---

Target: UniProt P33261
Sequence (P33261 whole entry): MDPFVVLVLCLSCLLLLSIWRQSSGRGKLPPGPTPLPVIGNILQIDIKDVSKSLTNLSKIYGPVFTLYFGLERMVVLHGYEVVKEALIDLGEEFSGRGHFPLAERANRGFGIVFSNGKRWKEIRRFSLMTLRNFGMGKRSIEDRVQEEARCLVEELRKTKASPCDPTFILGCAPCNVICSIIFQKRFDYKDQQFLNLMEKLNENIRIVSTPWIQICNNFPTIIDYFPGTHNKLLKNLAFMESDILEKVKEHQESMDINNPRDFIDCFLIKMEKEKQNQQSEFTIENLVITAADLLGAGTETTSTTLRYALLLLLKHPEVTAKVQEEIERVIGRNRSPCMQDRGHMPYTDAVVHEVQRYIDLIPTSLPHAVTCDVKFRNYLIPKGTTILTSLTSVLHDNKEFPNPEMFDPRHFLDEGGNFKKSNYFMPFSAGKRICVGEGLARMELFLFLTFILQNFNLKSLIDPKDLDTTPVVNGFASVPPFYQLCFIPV
measured.property: pIC50
Give bare numbers, as −log10 of the molar value.

[ask] Return pIC50 (reported value) for this molecule: O=C(NCc1cnc(C(F)(F)F)s1)c1ccc2c(c1)NC(=O)c1ccccc1S2(=O)=O
[reply] 4.37

---

Target: HBV Cp (3CA Cp150-BODIPY) (Hepatitis B virus genotype D subtype adw, UniProt P03147, C107A/C48A/C61A/R150C)
Sequence (P03147 1-150 C48A/C61A/C107A/R150C): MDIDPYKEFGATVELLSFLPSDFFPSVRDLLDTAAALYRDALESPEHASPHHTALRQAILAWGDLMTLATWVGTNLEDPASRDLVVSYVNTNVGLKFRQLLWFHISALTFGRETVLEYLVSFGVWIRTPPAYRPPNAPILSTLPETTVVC
Assay: HBV Cp in vitro assembly assay (fluorescence quenching)
measured.property: IC50 (nM)
Give bare numbers, in nM.

[ask] Return IC50 (reported value) for this compound: O=C(NCc1cnc(C(F)(F)F)s1)c1ccc2c(c1)NC(=O)c1ccccc1S2(=O)=O
[reply] 267

---

Assay: in vitro
Settings: monkey, microsomes
measured.property: half-life at 0.5 μM (h)
Give bare numbers, in h.

[ask] Return half-life at 0.5 μM (reported value) for this compound: O=C(NCc1cnc(C(F)(F)F)s1)c1ccc2c(c1)NC(=O)c1ccccc1S2(=O)=O
[reply] 5.98

---

Tested on: HBV
Assay: HBV infection of HepG2-NTCP cells
Format: cell-based
Conditions: Hepatitis B virus, read-out: EC50, HBeAg production
measured.property: EC50 (nM)
One number for each entry, in nM.

[ask] Return EC50 (reported value) for this compound: CCOC(=O)C1=C(CN2CCOCC2)NC(c2nccs2)=NC1c1ccc(F)cc1Br (stereo not shown)
[reply] 550

---

Assay: in vivo
Conditions: male, beagle, dog, iv, 2 mg/kg, T1/2
measured.property: half-life (h)
Numbers only, in h.

[ask] Return half-life (reported value) for this molecule: O=C(NCc1cnc(C(F)(F)F)s1)c1ccc2c(c1)NC(=O)c1ccccc1S2(=O)=O
[reply] 2.5

---

Experiment: in vivo
Conditions: male, CD-1, mouse, po, 5 mg/kg
measured.property: Cmax (ng/mL)
Answers are plain numbers, in ng/mL.

[ask] Return Cmax (reported value) for this compound: O=C(NCc1cnc(C(F)(F)F)s1)c1ccc2c(c1)NC(=O)c1ccccc1S2(=O)=O
[reply] 1420

---

Experiment: in vivo
Conditions: male, CD-1 (mouse), Sprague-Dawley (rat), beagle (dog), cynomolgus monkey, iv
Experimental: The same solution formulation was administered per os (p.o.) in the same species to determine oral bioavailability. Pharmacokinetic studies were performed at Wuxi (Shanghai, China) for studies in male mouse, rat, and cynomolgus monkey and at Sai (Pune, India) for studies in male dog. For all oral studies, the formulation was administered in the fasted state (food removed at least 12 h prior to dosing) to groups of 3 per arm.
measured.property: Vd

[ask] Return Vd (reported value) for this compound: O=C(NCc1cnc(C(F)(F)F)s1)c1ccc2c(c1)NC(=O)c1ccccc1S2(=O)=O
[reply] 1.56 to 4.06 L/kg

---

Experiment: in vitro
Details: human, plasma
measured.property: fraction unbound at 6 h, 10 μM
Answers are plain numbers.

[ask] Return fraction unbound at 6 h, 10 μM (reported value) for this molecule: O=C(NCc1cnc(C(F)(F)F)s1)c1ccc2c(c1)NC(=O)c1ccccc1S2(=O)=O
[reply] 0.034

---

Test: in vitro
Details: dog, microsomes
measured.property: half-life at 0.5 μM (min)
Numbers only, in min.

[ask] Return half-life at 0.5 μM (reported value) for this compound: O=C(NCc1cnc(C(F)(F)F)s1)c1ccc2c(c1)NC(=O)c1ccccc1S2(=O)=O
[reply] 37.3

---

Test: in vivo
Conditions: male, cynomolgus monkey, iv, 0.5 mg/kg
measured.property: AUC(0-inf)
Enter the number, and then the unit.

[ask] Return AUC(0-inf) (reported value) for this compound: O=C(NCc1cnc(C(F)(F)F)s1)c1ccc2c(c1)NC(=O)c1ccccc1S2(=O)=O
[reply] 1750 ng·h/mL

---

Test: in vitro
Conditions: human, plasma
measured.property: fraction unbound at 6 h, 30 μM
One number for each entry.

[ask] Return fraction unbound at 6 h, 30 μM (reported value) for this molecule: O=C(NCc1cnc(C(F)(F)F)s1)c1ccc2c(c1)NC(=O)c1ccccc1S2(=O)=O
[reply] 0.024

---

Test: in vivo
Details: male, beagle, dog, po, 3 mg/kg
measured.property: AUC(0-inf) (ng·h/mL)
Give bare numbers, in ng·h/mL.

[ask] Return AUC(0-inf) (reported value) for this molecule: O=C(NCc1cnc(C(F)(F)F)s1)c1ccc2c(c1)NC(=O)c1ccccc1S2(=O)=O [ABI-H0731]
[reply] 2150

---

Test: in vivo
Conditions: male, CD-1, mouse, iv, 1 mg/kg, T1/2
measured.property: half-life (h)
Answers are plain numbers, in h.

[ask] Return half-life (reported value) for this compound: O=C(NCc1cnc(C(F)(F)F)s1)c1ccc2c(c1)NC(=O)c1ccccc1S2(=O)=O
[reply] 3.6

---

Tested on: HBV
Experiment: Extracellular HBV DNA and pgRNA in HepAD38 cells (qPCR, RT-qPCR)
Format: cell-based, Hepatitis B virus
Conditions: HepAD38; concn ETV 0.01, ABI-H0731 2.0, GLS4 0.5, NVR 3-778 2.5, AT-130 0.8, VRD-32 0.8 μM
Would you mind telling me the reported Extracellular DNA content (% of DMSO control) of each entry?

List Extracellular DNA content (% of DMSO control) for every entry below, keeping the order given.
1. COc1ccccc1/C(Br)=C(/NC(=O)c1ccc([N+](=O)[O-])cc1)C(=O)N1CCCCC1 [AT-130]
2. CCOC(=O)C1=C(CN2CCOCC2)NC(c2nccs2)=NC1c1ccc(F)cc1Br (stereo not drawn) [GLS4]
3. O=C1CO[C@H](c2cn(-c3ccc(F)cc3)nc2-c2ccc(F)cc2)N1CCc1ccc(O)cc1 [VRD-32]
4. O=C(Nc1cc(F)c(F)c(F)c1)c1ccc(F)c(S(=O)(=O)N2CCC(O)CC2)c1 [NVR 3-778]
5. O=C(NCc1cnc(C(F)(F)F)s1)c1ccc2c(c1)NC(=O)c1ccccc1S2(=O)=O [ABI-H0731]
6. C=C1[C@H](CO)[C@@H](O)C[C@@H]1n1cnc2c(=O)[nH]c(N)nc21 [ETV, entecavir]

[reply]
1: 5.3 % of DMSO control; 2: 0.1 % of DMSO control; 3: 0.3 % of DMSO control; 4: 1.0 % of DMSO control; 5: 1.4 % of DMSO control; 6: 19.5 % of DMSO control

---

Assay: in vivo
Conditions: male, beagle, dog, po, 3 mg/kg
measured.property: Tmax
Enter the number, and then the unit.

[ask] Return Tmax (reported value) for this molecule: O=C(NCc1cnc(C(F)(F)F)s1)c1ccc2c(c1)NC(=O)c1ccccc1S2(=O)=O
[reply] 40 min

---

Test system: HBV Cp Wild type
Experiment: microbe, parasite or virus in culture
Type: cell-based, Hepatitis B virus
Settings: Hepatitis B virus, Huh-7, read-out: Mean EC50
Would you mind telling me the reported pEC50 of each entry?
One number for each entry, as −log10 of the molar value.

List pEC50 for every entry below, keeping the order given.
1. C=C1[C@H](CO)[C@@H](O)C[C@@H]1n1cnc2c(=O)[nH]c(N)nc21
2. O=C(Nc1cc(F)c(F)c(F)c1)c1ccc(F)c(S(=O)(=O)N2CCC(O)CC2)c1
3. O=C(NCc1cnc(C(F)(F)F)s1)c1ccc2c(c1)NC(=O)c1ccccc1S2(=O)=O

[reply]
1. 8.72
2. 6.75
3. 6.84

List pEC50 for every entry below, keeping the order given.
1. CCOC(=O)C1=C(CN2CCOCC2)NC(c2nccs2)=NC1c1ccc(F)cc1Br (centres unmarked)
2. O=C1CO[C@H](c2cn(-c3ccc(F)cc3)nc2-c2ccc(F)cc2)N1CCc1ccc(O)cc1

[reply]
[7.75, 7.79]

---

Target: CYP3A (Homo sapiens, UniProt P08684)
Sequence (P08684 2-503): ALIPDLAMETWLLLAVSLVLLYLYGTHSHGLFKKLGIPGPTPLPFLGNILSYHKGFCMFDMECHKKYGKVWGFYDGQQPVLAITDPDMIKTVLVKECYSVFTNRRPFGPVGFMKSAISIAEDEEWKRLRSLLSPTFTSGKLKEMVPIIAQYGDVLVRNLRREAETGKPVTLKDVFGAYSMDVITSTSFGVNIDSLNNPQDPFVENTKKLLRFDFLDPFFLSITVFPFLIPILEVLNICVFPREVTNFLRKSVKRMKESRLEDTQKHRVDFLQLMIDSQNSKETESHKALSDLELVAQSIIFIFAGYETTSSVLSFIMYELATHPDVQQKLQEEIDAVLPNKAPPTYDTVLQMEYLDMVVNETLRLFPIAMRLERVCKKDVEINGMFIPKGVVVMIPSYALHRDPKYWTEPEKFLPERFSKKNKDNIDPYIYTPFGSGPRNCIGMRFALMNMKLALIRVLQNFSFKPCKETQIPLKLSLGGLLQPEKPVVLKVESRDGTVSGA
Assay: CYP inhibition in human liver microsomes, 3A
Conditions: probe test (so in the source)
measured.property: pIC50
Give bare numbers, as −log10 of the molar value.

[ask] Return pIC50 (reported value) for this compound: O=C(NCc1cnc(C(F)(F)F)s1)c1ccc2c(c1)NC(=O)c1ccccc1S2(=O)=O
[reply] 4.34

---

Assay: in vivo
Details: male, beagle, dog, po
measured.property: bioavailability (%)
Numbers only, in %.

[ask] Return bioavailability (reported value) for this compound: O=C(NCc1cnc(C(F)(F)F)s1)c1ccc2c(c1)NC(=O)c1ccccc1S2(=O)=O [ABI-H0731]
[reply] 49
